Every entry's value here was drawn from ChEMBL document CHEMBL2176989.

assayed.target: 5-hydroxytryptamine receptor 6 (Homo sapiens) (UniProt P50406)
Sequence (P50406 whole entry): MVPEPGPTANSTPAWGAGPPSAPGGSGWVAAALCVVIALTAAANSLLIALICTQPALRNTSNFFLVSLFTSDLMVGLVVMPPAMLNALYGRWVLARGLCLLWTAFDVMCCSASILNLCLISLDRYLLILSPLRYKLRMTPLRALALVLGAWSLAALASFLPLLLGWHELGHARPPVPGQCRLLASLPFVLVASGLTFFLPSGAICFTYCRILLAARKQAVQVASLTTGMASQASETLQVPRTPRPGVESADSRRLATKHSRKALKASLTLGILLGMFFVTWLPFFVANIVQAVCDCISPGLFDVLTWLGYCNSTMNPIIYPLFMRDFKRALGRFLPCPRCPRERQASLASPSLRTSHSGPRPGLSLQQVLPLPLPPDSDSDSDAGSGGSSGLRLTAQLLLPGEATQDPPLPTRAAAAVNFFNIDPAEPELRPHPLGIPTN
protocol: Antagonist activity at human recombinant 5HT6 receptor expressed in CHO cells assessed as inhibition of 5HT-induced luciferase activity after 4 hrs by reporter gene assay
Type: functional, cell-based
observation.type: Kb (nM)
Dear colleague, please return just the value in nM, with no unit written.

## Input Quote Kb with test system 5-hydroxytryptamine receptor 6 (Homo sapiens) (UniProt P50406) for `CCc1ccc(S(=O)(=O)n2ccc3ccccc32)cc1NC1CCN(C)CC1`
## Output 1.39

## Input Report value only: Kb, 5-hydroxytryptamine receptor 6 (Homo sapiens) (UniProt P50406), `COc1ccc(S(=O)(=O)n2nc(C)c3cc(Cl)ccc32)cc1NC1CCN(C)CC1.O=C(O)C(O)C(O)C(=O)O`
## Output 0.6

## Input Please indicate recorded Kb of `CCc1ccc(S(=O)(=O)n2ccc3c(Cl)cccc32)cc1NC1CCN(C)CC1` measured with 5-hydroxytryptamine receptor 6 (Homo sapiens) (UniProt P50406).
## Output 12.8

## Input Using 5-hydroxytryptamine receptor 6 (Homo sapiens) (UniProt P50406) as the test system, report measured Kb of `COc1ccc(S(=O)(=O)N2CCc3ccccc3C2)cc1NC1CCN(C)CC1` .
## Output 0.07
